Each recorded value in this set is attributed to ChEMBL document CHEMBL3297718.

Test system: Aspergillus fumigatus
Experiment: Antimicrobial activity against Aspergillus fumigatus MTCC 3008 by broth microdilution method
Assay type: functional
measurementKind: MIC

>>> resultvalue("Cc1nn(-c2ccccc2)c(-n2ccnc2)c1-c1cc(-c2ccco2)nc(N)c1C#N")
"> 1000 mg/L"
>>> resultvalue("Cc1nn(-c2ccccc2)c(-n2ccnc2)c1C=O")
"> 1000 mg/L"
>>> resultvalue("Cc1cn(-c2c(-c3cc(-c4ccco4)nc(N)c3C#N)c(C)nn2-c2ccccc2)cn1")
"> 1000 mg/L"
>>> resultvalue("Cc1cn(-c2c(-c3cc(-c4cccs4)nc(N)c3C#N)c(C)nn2-c2ccccc2)cn1")
"> 1000 mg/L"
>>> resultvalue("Cc1cn(-c2c(-c3cc(-c4ccc(-c5ccccc5)cc4)nc(N)c3C#N)c(C)nn2-c2ccccc2)cn1")
"500 mg/L"
